System: LPS-induced nitric oxide production in RAW264.7 cells
method: LPS-induced NO production, Griess Reagent assay
Assay type: cell-based, mouse
protocol_conditions: Mus musculus, compounds 10 μM, 1 h, then LPS (0.5 μg/mL) 24 h, read-out: Inhibition rate±SD (%) against NO production
Procedure: RAW264.7 cells (7 × 10^4 cells/well) were seeded into 48-well plate and used for experiments after 24 h. […] After 24 h collect cell supernatant, NO production was measured using Griess Reagent assay (Beyotime). Griess reagent were mixed at a ratio of 1:1, and reacted at room temperature for 15 min. Measurement of absorbance at 450 nm with enzyme reader. […] All experimental data were analysed by using GraphPad Prism software, version 8.0 (GraphPad Inc.).
Give measured inhibition at 10 µM for each item. Keep answers brief.
Numeric answer only, unit % assumed.

Query: What value of inhibition at 10 µM has been recorded for this entry: CNC(=O)Nc1cc(C(C)=O)c(O)cc1OC [Compound A1]
Result: 20.1

Query: Ok, now CCN(CC)C(=O)Nc1cc(C(C)=O)c(O)cc1OC [Compound A2]
Result: 30.2

Query: Proceed to COc1cc(O)c(C(C)=O)cc1NC(=O)N1CCOCC1 [Compound A11]
Result: 29.8
